EXPERIMENT DESCRIPTION: superoxide lowering in aged yeast cells, pilot screen, validation compound set (AID 2706);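 also: yeast exposed to compound for one week at 30 degrees C before staining; 100% = mean of all compound wells on the same plate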
CONDITION SET: S. cerevisiae aging, superoxide DHE fluorescence; at 10 µM, stronger effect = lower value
TEST READOUT: superoxide response (% of plate) (%)
Give the value in % but do not write % after it.

QUERY: Using the record for "O=C(/C=C/c1ccco1)NCc1ccc2c(c1)OCO2" , report its superoxide response (% of plate).
RESULT: 101

QUERY: Using the record for "Cn1c2ccccc2c2cc(/C=C(\NC(=O)c3ccccc3)C(=O)O)ccc21" , report its superoxide response (% of plate).
RESULT: 111

QUERY: Using the record for "NC(=O)OCC(COC(N)=O)c1ccccc1" , report its superoxide response (% of plate).
RESULT: 92.5

QUERY: Using the record for Cn1cc(CN2CCCC(CO)(Cc3cccc(Cl)c3)C2)cn1 (stereo unspecified) , report its superoxide response (% of plate).
RESULT: 92.7

QUERY: Using the record for "O=C(NCc1ccccc1Cl)NC(=O)c1ccccc1" , report its superoxide response (% of plate).
RESULT: 115

QUERY: Using the record for "CN1CCC(OC(c2ccccc2)c2ccccc2)CC1" , report its superoxide response (% of plate).
RESULT: 95.8

QUERY: Using the record for "CC(=O)N=c1sc(S(N)(=O)=O)nn1C" , report its superoxide response (% of plate).
RESULT: 97

QUERY: Using the record for "C/C=C/Cn1c(SC)nc2c1c(=O)[nH]c(=O)n2C" , report its superoxide response (% of plate).
RESULT: 97.4

QUERY: Using the record for COc1ccc(C(=O)C2CCCCC2=O)cc1 (stereo unspecified) , report its superoxide response (% of plate).
RESULT: 100

QUERY: Using the record for "COc1ccc(/C=C2\CCn3c2nc2cc(C(=O)O)ccc2c3=O)cc1OC" , report its superoxide response (% of plate).
RESULT: 108

QUERY: Using the record for "COc1ccc(/C=C2\CCc3ccccc3C2=O)c(OC)c1OC" , report its superoxide response (% of plate).
RESULT: 94.8

QUERY: Using the record for CCN(CC)CCN1C(=O)C(=O)/C(=C(/O)c2c(C)[nH]c(C(=O)OC)c2C)C1c1cccnc1 (stereo unspecified) , report its superoxide response (% of plate).
RESULT: 95.2

QUERY: Using the record for Cc1ccccc1C(OCCN(C)C)c1ccccc1 (stereo unspecified) , report its superoxide response (% of plate).
RESULT: 106

QUERY: Using the record for "O=C(/C=C/c1ccccc1)/C=C/c1ccccc1" , report its superoxide response (% of plate).
RESULT: 105

QUERY: Using the record for "COc1ccc2oc(=O)c(-c3nc(C)cs3)cc2c1" , report its superoxide response (% of plate).
RESULT: 89.3

QUERY: Using the record for Nc1cccc2c1nnn2C1OC(CO)C(O)C(O)C1O (stereo unspecified) , report its superoxide response (% of plate).
RESULT: 82.8

QUERY: Using the record for "Cc1ccc(P(=O)(CSC(=N)N)c2ccc(C)cc2)cc1" , report its superoxide response (% of plate).
RESULT: 95

QUERY: Using the record for "O=c1[nH]c(Cc2ccccc2)nc2c1oc1ccccc12" , report its superoxide response (% of plate).
RESULT: 94

QUERY: Using the record for "NS(=O)(=O)c1cc2c(cc1Cl)NC(CSCc1ccccc1)=NS2(=O)=O" , report its superoxide response (% of plate).
RESULT: 95.7

QUERY: Using the record for "CC(C)NNC(=O)c1ccncc1" , report its superoxide response (% of plate).
RESULT: 101

QUERY: Using the record for CC(C)(C)NCC(O)c1cc(O)cc(O)c1 (stereo unspecified) , report its superoxide response (% of plate).
RESULT: 113

Entry source: PubChem BioAssay
